Molecular target: FXR (Homo sapiens, UniProt Q96RI1)
Construct: expressed in transfected cells; host or cells: CV-1 cells
Sequence (Q96RI1 1-486): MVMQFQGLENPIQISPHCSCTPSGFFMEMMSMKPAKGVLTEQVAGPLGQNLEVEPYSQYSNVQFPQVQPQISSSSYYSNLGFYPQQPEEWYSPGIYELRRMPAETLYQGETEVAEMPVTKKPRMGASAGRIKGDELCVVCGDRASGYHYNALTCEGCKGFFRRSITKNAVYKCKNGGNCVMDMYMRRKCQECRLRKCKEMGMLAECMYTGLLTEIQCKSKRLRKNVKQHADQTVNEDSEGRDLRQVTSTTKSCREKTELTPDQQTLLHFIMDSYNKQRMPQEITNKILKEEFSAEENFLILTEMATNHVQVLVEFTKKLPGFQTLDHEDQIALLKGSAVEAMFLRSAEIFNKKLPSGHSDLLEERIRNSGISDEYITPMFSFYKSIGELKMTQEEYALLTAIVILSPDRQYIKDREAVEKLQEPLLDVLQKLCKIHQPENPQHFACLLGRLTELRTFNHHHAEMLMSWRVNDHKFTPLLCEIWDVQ
Sequence (P19793 1-462 partner): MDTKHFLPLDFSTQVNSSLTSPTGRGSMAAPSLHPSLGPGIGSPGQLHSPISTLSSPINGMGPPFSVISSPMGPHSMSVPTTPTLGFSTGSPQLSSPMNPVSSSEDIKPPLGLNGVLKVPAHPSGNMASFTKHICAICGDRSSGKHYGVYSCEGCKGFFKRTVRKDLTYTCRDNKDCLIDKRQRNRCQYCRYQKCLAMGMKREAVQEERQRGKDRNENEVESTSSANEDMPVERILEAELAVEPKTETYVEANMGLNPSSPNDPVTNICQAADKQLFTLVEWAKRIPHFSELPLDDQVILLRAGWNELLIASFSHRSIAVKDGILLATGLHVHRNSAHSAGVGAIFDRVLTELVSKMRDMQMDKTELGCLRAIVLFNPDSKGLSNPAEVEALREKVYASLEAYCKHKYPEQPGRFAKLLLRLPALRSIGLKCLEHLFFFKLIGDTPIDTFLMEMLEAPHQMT
Assay: In Vitro FXR Assay (TK): TK-ECRE-luc reporter in transfected CV-1 cells
Format: cell-based
Settings: CV-1 cells transfected with hFXR, hRXR, 18 h incubation, luminescence
pEC50: −log10 of the molar value.
Exercise: for every item that follows, state its recorded pEC50.

What is its pEC50 for FXR (Homo sapiens, UniProt Q96RI1)? Entry: "COC(=O)/C=C/c1cccc(N(Cc2ccc(-c3ccc(N(C)C)cc3)cc2)C(=O)c2ccc(OC)cc2)c1" 5.00 to 6.00

What is its pEC50 for FXR (Homo sapiens, UniProt Q96RI1)? Entry: "COC(=O)/C=C/c1cccc(N(Cc2ccc(-c3ccccc3O)cc2)C(=O)C2CCCCC2)c1" 5.00 to 6.00

What is its pEC50 for FXR (Homo sapiens, UniProt Q96RI1)? Entry: "COC(=O)/C=C/c1cc(C)cc(N(Cc2ccc(-c3ccc(N(C)C)cc3)cc2)C(=O)C2CCCCC2)c1" 5.00 to 6.00

What is its pEC50 for FXR (Homo sapiens, UniProt Q96RI1)? Entry: "COC(=O)/C=C/c1cccc(N(Cc2ccc(-c3cnc(N(C)C)cn3)cc2)C(=O)C2CCCCC2)c1" 5.00 to 6.00

What is its pEC50 for FXR (Homo sapiens, UniProt Q96RI1)? Entry: "COC(=O)/C=C/c1cccc(N(Cc2ccc(-c3ccc(N(C)C)cc3)cc2)C(=O)[C@H]2CC[C@H](NC(C)=O)CC2)c1" ≥ 6.00

What is its pEC50 for FXR (Homo sapiens, UniProt Q96RI1)? Entry: COC(=O)/C=C/c1cccc(N(C(=O)C2CCCCC2)C(C)c2ccc(-c3ccc(N(C)C)cc3)cc2)c1 (stereo not drawn) 5.00 to 6.00

What is its pEC50 for FXR (Homo sapiens, UniProt Q96RI1)? Entry: "COC(=O)/C=C/c1cccc(N(Cc2ccc(-c3cnn(C)c3)cc2)C(=O)C2CCCCC2)c1" 5.00 to 6.00

What is its pEC50 for FXR (Homo sapiens, UniProt Q96RI1)? Entry: "COC(=O)/C=C/c1cccc(N(Cc2ccc(-c3ccc(N(C)C)cc3)cc2)C(=O)[C@H]2CC[C@@H](S(C)(=O)=O)CC2)c1" 5.00 to 6.00

What is its pEC50 for FXR (Homo sapiens, UniProt Q96RI1)? Entry: "CCOC(=O)/C=C/c1cccc(N(Cc2ccc(-c3ccc(N(C)C)cc3)cc2)C(=O)C2CCCCC2)c1" ≥ 6.00

What is its pEC50 for FXR (Homo sapiens, UniProt Q96RI1)? Entry: "COC(=O)/C=C/c1cccc(N(Cc2ccc(-c3ccc(S(C)(=O)=O)cc3F)cc2)C(=O)C2CCCCC2)c1" 5.00 to 6.00

What is its pEC50 for FXR (Homo sapiens, UniProt Q96RI1)? Entry: "COC(=O)/C=C/c1cccc(N(Cc2ccc(-c3ccc4ncsc4c3)cc2)C(=O)C2CCCCC2)c1" 5.00 to 6.00

What is its pEC50 for FXR (Homo sapiens, UniProt Q96RI1)? Entry: "COC(=O)/C=C/c1cccc(N(Cc2ccc(-c3c(C)noc3C)cc2)C(=O)C2CCCCC2)c1" 5.00 to 6.00

What is its pEC50 for FXR (Homo sapiens, UniProt Q96RI1)? Entry: COC(=O)/C=C/c1cccc(N(Cc2ccc(-c3ccc(N(C)C)cc3)cc2)C(=O)C2CCCCO2)c1 (stereo not drawn) ≥ 6.00

What is its pEC50 for FXR (Homo sapiens, UniProt Q96RI1)? Entry: "COC(=O)/C=C/c1cccc(N(Cc2ccc(-c3ccc4ncoc4c3)cc2)C(=O)C2CCCCC2)c1" 5.00 to 6.00

What is its pEC50 for FXR (Homo sapiens, UniProt Q96RI1)? Entry: "COC(=O)/C=C/c1cccc(N(Cc2ccc(-c3ccc4cnsc4c3)cc2)C(=O)C2CCCCC2)c1" 5.00 to 6.00
